System: Hepatic microsomes from rats pretreated with Phenobarbital (CYP2B)
run description: Inhibition of 3-ABA oxidation by CYPs in hepatic microsomes of phenobarbital-pretreated rats
Type: biochemical, rat
experimental context: inhibitor 0.01–0.1 mM, 20 min, 37 °C
measurement name: IC50 (nM)
Answers are plain numbers, in nM.

(Q) Specify IC50 for C1C2CC3C4CC5CC(C14)C(C2)C3C5 [Diamantane, diamantane] and stop.
(A) 900

====

System: Control rat hepatic microsomes (CYPs)
run description: Inhibition of 3-ABA oxidation by CYPs in hepatic microsomes of untreated (control) rats
Type: biochemical
experimental context: hepatic microsomes from control rats; inhibitor 0.01–0.1 mM, 20 min, 37 °C
Description: The study was conducted in accordance with the Regulations for the Care and Use of Laboratory Animals (311/1997, Ministry of Agriculture, Czech Republic), which complies with Declaration of Helsinki.
measurement name: IC50

(Q) Specify IC50 for CCN(CC)C(=S)S [DDTC, diethyldithiocarbamate] and stop.
(A) 96.8 µM

====

Tested on: CYP1A1/2
run description: Inhibition of 3-ABA oxidation by CYPs in hepatic microsomes of β-naphthoflavone-pretreated rats
Type: biochemical
experimental context: male, Wistar, rat, liver microsomes from β-naphthoflavone-pretreated rats, pH 7.4, probe 3-ABA (5-50 µM), hepatic microsomes from rats pretreated with β-naphtoflavone (CYP1A1/2), inhibitor 0.01–0.1 mM, 37 °C
measurement name: IC50 at 20 min (µM)
Answers are plain numbers, in µM.

[
  {
    "compound": "O=c1cc(-c2ccccc2)oc2c1ccc1ccccc12",
    "IC50 at 20 min, µM": 10.9
  }
]

Please turn your attention to the following entry.
(Q) Check CYP1A1/2 data and give IC50 at 20 min for Cc1nc2c([nH]1)c(=O)n(C)c(=O)n2Cc1ccco1 .
(A) 16.6
